Cited source for all entries: patent US20230233569A1

# EXPERIMENTAL_SYSTEM: NRAS WT (Homo sapiens, UniProt P01111+P62937)
# Sequence (P01111 whole entry): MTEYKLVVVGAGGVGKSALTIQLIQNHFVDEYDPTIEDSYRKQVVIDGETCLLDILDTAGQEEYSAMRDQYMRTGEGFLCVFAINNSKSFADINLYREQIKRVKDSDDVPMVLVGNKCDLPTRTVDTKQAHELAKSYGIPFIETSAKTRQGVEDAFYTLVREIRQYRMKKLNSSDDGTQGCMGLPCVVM
# Sequence (P62937 whole entry): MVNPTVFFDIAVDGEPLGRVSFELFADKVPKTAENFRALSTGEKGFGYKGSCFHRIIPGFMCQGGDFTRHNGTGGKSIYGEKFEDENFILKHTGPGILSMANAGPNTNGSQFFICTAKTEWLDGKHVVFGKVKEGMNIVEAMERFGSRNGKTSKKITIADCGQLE
# TEST_PROTOCOL: Ras-Raf disruption / FRET / MOA assay (BRAF RBD)
# Format: biochemical
# ASSAY_CONTEXT: NRAS WT; read-out: NRAS WT FRET data IC50

| COMPOUND | IC50 |
| --- | --- |
| CCn1c(-c2cccnc2[C@H](C)OC)c2c3cc(ccc31)-c1csc(n1)C[C@H](NC(=O)[C@H](C(C)C)N(C)C(=O)N(C)CC1CN(C(=O)[C@@H]3CN3)C1)C(=O)N1CCC[C@H](N1)C(=O)OCC(C)(C)C2 (atropisomer, axis not shown) [Example 294] | 0.1 to 1 µM |
| CCn1c(-c2cccnc2[C@H](C)OC)c2c3cc(ccc31)-c1cc(O)cc(c1)C[C@H](NC(=O)[C@H](C(C)C)N(C)C(=O)N1CC[C@H](N(C)C(=O)[C@@H]3CN3)C1)C(=O)N1CCC[C@H](N1)C(=O)OCC(C)(C)C2 (atropisomer, axis not shown) [Example 255] | 0.01 to 0.1 µM |
| CCn1c(-c2cccnc2[C@H](C)OC)c2c3cc(ccc31)-c1csc(n1)C[C@H](NC(=O)[C@H](C(C)C)N(C)C(=O)N1CCN(C(=O)[C@H]3CN3)[C@@H](C)C1)C(=O)N1CCC[C@H](N1)C(=O)OCC(C)(C)C2 [Example 297] | 0.01 to 0.1 µM |
| CCn1c(-c2cccnc2[C@H](C)OC)c2c3cc(ccc31)-c1csc(n1)C[C@H](NC(=O)[C@H](C(C)C)N(C)C(=O)N1CCN(C(=O)[C@@H]3CN3)[C@@H](C)C1)C(=O)N1CCC[C@H](N1)C(=O)OCC(C)(C)C2 [Example 298] | 0.01 to 0.1 µM |
| CCn1c(-c2cccnc2[C@H](C)OC)c2c3cc(ccc31)-c1cc(O)cc(c1)C[C@H](NC(=O)[C@H](C(C)C)N(C)C(=O)C1CN(S(=O)(=O)[C@H]3CN3C)C1)C(=O)N1CCC[C@H](N1)C(=O)OCC(C)(C)C2 (single isomer, unassigned) [Example 117] | 0.01 to 0.1 µM |
| CCn1c(-c2cccnc2[C@H](C)OC)c2c3cc(ccc31)-c1cc(O)cc(c1)C[C@H](NC(=O)[C@H](C(C)C)N(C)C(=O)N1CC[C@@H](N(C)C(=O)[C@@H]3CN3)C1)C(=O)N1CCC[C@H](N1)C(=O)OCC(C)(C)C2 (atropisomer, axis not shown) [Example 253] | 0.01 to 0.1 µM |
| CCn1c(-c2cccnc2[C@H](C)OC)c2c3cc(ccc31)-c1cc(O)cc(c1)C[C@H](NC(=O)[C@H](C(C)C)N(C)C(=O)[C@]1(F)CCN(C(=O)[C@H]3CN3)C1)C(=O)N1CCC[C@H](N1)C(=O)OCC(C)(C)C2 (atropisomer, axis not shown) [Example 311] | 0.01 to 0.1 µM |
| CCn1c(-c2cccnc2[C@H](C)OC)c2c3cc(ccc31)-c1cc(O)cc(c1)C[C@H](NC(=O)[C@H](C(C)C)N(C)C(=O)[C@@H]1CCCN(C(=O)[C@H]3CN3)C1)C(=O)N1CCC[C@H](N1)C(=O)OCC(C)(C)C2 (atropisomer, axis not shown) [Example 237] | 0.01 to 0.1 µM |
| CCn1c(-c2cccnc2[C@H](C)OC)c2c3cc(ccc31)-c1csc(n1)C[C@H](NC(=O)[C@H](C(C)C)N(C)C(=O)N(C)[C@H]1CCN(C(=O)[C@@H]3CN3)C1)C(=O)N1CCC[C@H](N1)C(=O)OCC(C)(C)C2 (atropisomer, axis not shown) [Example 310] | 0.1 to 1 µM |
| CCn1c(-c2cccnc2[C@H](C)OC)c2c3cc(ccc31)-c1cc(O)cc(c1)C[C@H](NC(=O)[C@H](C(C)C)N(C)C(=O)[C@H]1CCCN(C(=O)[C@@H]3CN3)C1)C(=O)N1CCC[C@H](N1)C(=O)OCC(C)(C)C2 [Example 236] | 0.1 to 1 µM |
| CCn1c(-c2cccnc2[C@H](C)OC)c2c3cc(ccc31)-c1csc(n1)C[C@H](NC(=O)[C@H](C(C)C)N(C)C(=O)N(C)C1CN(C(=O)[C@@H]3CN3)C1)C(=O)N1CCC[C@H](N1)C(=O)OCC(C)(C)C2 [Example 221] | 0.1 to 1 µM |
| CCn1c(-c2cccnc2[C@H](C)OC)c2c3cc(ccc31)-c1csc(n1)C[C@H](NC(=O)[C@H](C(C)C)N(C)C(=O)N(C)CC1CN(C(=O)[C@H]3CN3)C1)C(=O)N1CCC[C@H](N1)C(=O)OCC(C)(C)C2 (atropisomer, axis not shown) [Example 293] | 0.1 to 1 µM |
| CCn1c(-c2cccnc2[C@H](C)OC)c2c3cc(ccc31)-c1csc(n1)C[C@H](NC(=O)[C@H](C(C)C)N(C)C(=O)N1CC(N(C)C(=O)[C@@H]3CN3)C1)C(=O)N1CCC[C@H](N1)C(=O)OCC(C)(C)C2 (atropisomer, axis not shown) [Example 219] | 0.1 to 1 µM |
| CCn1c(-c2cccnc2[C@H](C)OC)c2c3cc(ccc31)-c1cc(O)cc(c1)C[C@H](NC(=O)[C@H](C(C)C)N(C)C(=O)N1C[C@@H]3[C@H]1CCN3C(=O)[C@@H]1CN1)C(=O)N1CCC[C@H](N1)C(=O)OCC(C)(C)C2 (atropisomer, axis not shown) [Example 251] | 0.1 to 1 µM |
| CCn1c(-c2cccnc2[C@H](C)OC)c2c3cc(ccc31)-c1csc(n1)C[C@H](NC(=O)[C@H](C(C)C)N(C)C(=O)N1CCC(CN(C)C(=O)[C@H]3CN3)CC1)C(=O)N1CCC[C@H](N1)C(=O)OCC(C)(C)C2 (atropisomer, axis not shown) [Example 326] | 0.01 to 0.1 µM |
